test system: TDF; assay: cell number relative to DMSO (% of DMSO); higher = more cells (less growth inhibition / toxicity); settings: concentration: 10 µM; 24 h;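 note: TDF denotes transformed human dermal fibroblasts of mesenchymal origin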
Documented cell number across a set of compounds
Form rule: numeric answer, no unit written next to it.

Some solved entries appear below for comparison.
(Q) Quick one: give measured cell number for Cl.Oc1ccc(Nc2nc(-c3ccc(Cl)cc3)cs2)cc1
(A) 75.1

(Q) Report measured cell number; entry is Cl.Clc1cccc(Cl)c1NC1=NCCN1 [Clonidine.HCl]
(A) 100

(Q) State its cell number for this compound: CC(C)c1cccc(C(C)C)c1N1C(=O)c2ccc(O)cc2C1=O
(A) 59.5

Alright, here's another compound for you.
(Q) Give recorded cell number. COc1cc(C2c3cc4c(cc3C(OC3OC5COC(C)OC5C(O)C3O)C3COC(=O)C23)OCO4)cc(OC)c1O (centres undefined) [Etoposide]
(A) 42.1
